# Assay Target: Excitatory amino acid transporter 1 (Homo sapiens, UniProt P43003)
# Sequence (P43003 whole entry): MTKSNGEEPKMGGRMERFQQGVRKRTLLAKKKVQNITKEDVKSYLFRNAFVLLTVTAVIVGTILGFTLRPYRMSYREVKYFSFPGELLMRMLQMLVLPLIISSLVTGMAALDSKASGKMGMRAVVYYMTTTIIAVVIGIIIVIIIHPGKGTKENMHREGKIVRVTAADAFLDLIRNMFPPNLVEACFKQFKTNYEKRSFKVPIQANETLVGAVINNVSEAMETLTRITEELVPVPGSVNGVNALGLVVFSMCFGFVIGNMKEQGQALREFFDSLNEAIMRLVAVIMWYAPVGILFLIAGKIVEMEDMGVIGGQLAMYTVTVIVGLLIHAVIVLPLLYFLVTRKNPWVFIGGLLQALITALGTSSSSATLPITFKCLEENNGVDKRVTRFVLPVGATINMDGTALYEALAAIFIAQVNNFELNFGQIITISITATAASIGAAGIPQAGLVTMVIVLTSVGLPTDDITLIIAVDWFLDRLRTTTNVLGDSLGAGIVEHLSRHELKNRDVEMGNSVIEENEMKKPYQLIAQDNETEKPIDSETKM
# Assay Remarks: Substrate uptake by the Excitatory Amino Acid Transporter 1 (EAAT1, SLC1A3) as assessed by the fluorescent FLIPR membrane potential dye in HEK-293 JumpIN-SLC1A3 cells (PubChem AID: 1745864)
Measurement Label: EC50 (µM)
Please respond with the number in µM and leave the unit unwritten.

Query: Annotate the compound N[C@@H](CS)C(=O)O with its measured EC50.
Response: 376

Query: Annotate the compound N[C@@H](CCC(=O)O)C(=O)O with its measured EC50.
Response: 16
